Form field: IC50 (one value per entry).
Biological target: UniProtKB P03887
Sequence (P03887 whole entry): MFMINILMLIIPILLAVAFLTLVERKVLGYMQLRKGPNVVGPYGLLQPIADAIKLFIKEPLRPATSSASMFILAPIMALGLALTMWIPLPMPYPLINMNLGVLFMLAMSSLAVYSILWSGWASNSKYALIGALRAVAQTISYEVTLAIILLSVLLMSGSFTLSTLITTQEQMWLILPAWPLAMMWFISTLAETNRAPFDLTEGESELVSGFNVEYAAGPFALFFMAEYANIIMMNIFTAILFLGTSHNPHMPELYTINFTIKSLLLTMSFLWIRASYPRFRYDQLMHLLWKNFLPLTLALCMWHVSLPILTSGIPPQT
Experiment: Inhibition of Bos taurus (bovine) mitochondrial complex 1 assessed as reduction in enzyme activity by NADH-DB oxidoreductase assay
Endpoint Name: IC50 (nM)

>>> test_result("COC1=C(OC)C(=O)C(CC(=O)N(C)c2ccc(Oc3ccc(C(C)(C)C)cc3)cc2)=C(C)C1=O")
1800
>>> test_result("COC1=C(OC)C(=O)C(CCN(C)C(=O)c2ccc(Oc3ccc(C(C)(C)C)cc3)cc2)=C(C)C1=O")
470
>>> test_result("COC1=C(OC)C(=O)C(CN(C)C(=O)c2ccc(Oc3ccc(C(C)(C)C)cc3)cc2)=C(C)C1=O")
77

Numbers sourced from ChEMBL document CHEMBL3044975.
